assay-details: NCI Yeast Anticancer Drug Screen. Data for the mec2-1 strain (AID 157)
test-parameters: S. cerevisiae mec2-1 strain, at 50.0 µM
The panel holds about 79,000 compounds, 15% with a hit somewhere; the sample as a whole holds those more often. The source made the active and inactive calls. Rule as the data show it: active = growth inhibition above about 70%; inactive = the rest.
Labels: active, inactive

1. CC(=O)OC/C=C1/CC[C@H]2[C@@H]3CCC4=CC(=O)CC[C@]4(C)[C@H]3[C@@H](O)C[C@]12C : inactive
2. C/C=C(\Cl)C(OC(C)=O)OC(C)=O : inactive
3. COCCCN1C(=O)C2c3[nH]c4ccccc4c3C3CCC(C(C)(C)C)CC3C2C1=O (stereo not drawn) : inactive
4. CCOC(=O)/C=C/c1ccccn1 : inactive
5. CC(=O)N1c2ccccc2S(=O)(=O)c2ccccc21 : inactive
6. C(#Cc1c2ccccc2c(C#Cc2ccccc2)c2c(-c3ccccc3)cccc12)c1ccccc1 : inactive
7. CCCCOC(=O)c1cc2ccccc2oc1=O : inactive
8. O=C(C/C(=C/c1ccccc1)[N+](=O)[O-])c1ccccc1 : active
9. Nc1nc(N)c2nc(-c3ccc(O)cc3)c(-c3ccc(O)cc3)nc2n1 : inactive
10. CCC(O)(Cc1ccccc1)C(C(=O)O)c1ccccc1 (stereo not drawn) : inactive
11. Nc1nc(SC2CCCCC2)nc2c1ncn2C1OC(CO)C(O)C1O (stereo not drawn) : inactive
12. CN(C)c1nc2[nH]ncc2c(=O)[nH]1 : inactive
13. COc1ccc(C2(C)C=C(C)C=C(C)C2=O)cc1 (stereo not drawn) : inactive
14. NC(=O)Nc1ccc(Cl)cc1[N+](=O)[O-] : inactive
15. O=C(NO)c1ccc([N+](=O)[O-])cc1 : inactive
16. Fc1cccc(C2SCc3nc4cc5ccccc5cc4n32)c1 (stereo not drawn) : inactive
17. O=C(CCCn1cnc([N+](=O)[O-])n1)NCCn1ccnc1[N+](=O)[O-] : inactive
18. NCC(O)COCc1ccccc1 (stereo not drawn) : inactive

###

assay-details: NCI Yeast Anticancer Drug Screen. Data for the cln2 rad14 strain (AID 165);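 also: 0% = growth equal to vehicle treated cultures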
test-parameters: S. cerevisiae cln2 rad14 strain, at 50.0 µM, hits give high values
Compounds without any hit were thinned out: in the full panel of roughly 79,000, 15% have a hit.
property: growth inhibition (%)

1) O=C(c1ccccc1)c1cc(Cl)ccc1N1C(=O)C=CC1=O : 99.2
2) CCOC(=O)c1ccc(NCCCNc2ccc(C(=O)OCC)cc2)cc1 : 0.35
3) Oc1ccc2c(c1)OCC(O)(c1ccccc1O)C2 (stereo not drawn) : 7.95
4) CC(=N\NS(=O)(=O)c1ccc(C)cc1)/C(C)=N/NS(=O)(=O)c1ccc(C)cc1 : 0.85
5) COc1ccccc1CC(C)N1CCCC1c1ccccc1 (stereo not drawn) : -41.6
6) CC(Br)C(=O)n1c2ccccc2c2ccccc21 (stereo not drawn) : -13.8
7) Clc1ccc2sc3c(c2c1)CCNC3 : -31.4
8) CN(C)CCNC(=O)c1cccc(N(C)C(=O)c2ccccc2)c1[N+](=O)[O-] : 17.6
9) CCCC(=O)Oc1c(Cl)cc(Cl)cc1-c1ccccc1 : 8.1
10) O=C(Nc1ccccc1)C1C2C=CC(CC2)C1C(=O)Nc1ccccc1 (stereo not drawn) : -10.2
11) OC1C2CCC3C2CC(C(O)(c2ccccc2)c2ccccc2)C13 (stereo not drawn) : -13.2
12) Nc1nc(N)nc(Cc2ccccc2)n1 : -58.4
13) COc1ccc(/C=C/C(=O)N(C)C)cc1 : 12.4
14) NC(=O)c1ccc(NCC2=CC(=O)C=CC2=O)cc1 : -2.6
15) CS(=O)(=O)OC(OS(C)(=O)=O)(OS(C)(=O)=O)OS(C)(=O)=O : -7.9
16) COc1nc2ccccc2nc1OC : -14.8
17) O=C1C=C2CCCCCCCCC(C1)C2 (stereo not drawn) : -18.8
18) CC1=C(C(=O)Nc2cc(C)ccn2)CCO1 : -33
19) CCCCCCCCCCCCNc1ncnc2c1cnn2C : -47.2
20) CC[O-].CC[O-].O=C1c2ccccc2C(=O)c2c(O)ccc([O-])c21.O=C1c2ccccc2C(=O)c2c(O)ccc([O-])c21.[Ti+4] : -4.3
21) Nc1ccc2c(c1)C(=O)c1ccccc1C2=O : 6.55
22) CC(=O)C1OC1c1ccccn1 (stereo not drawn) : 55.8
23) C/C(=C\c1ccc(OCCN2CCOCC2)cc1)c1ccc2c(c1)C(C)(C)CCC2(C)C : -4.95
24) NC(N)=NCCCCC(=O)Nc1ccc(S(N)(=O)=O)cc1 : -6.15
25) CC(C)=C1C2CCC1[C@H](COS(C)(=O)=O)[C@@H]2COS(C)(=O)=O : 16.9
26) CS(=O)(=O)/C=C/c1ccccc1 : 1.8
27) CS(=O)(=O)NCCBr : -22.4
28) COc1ccc2ccccc2c1C1=NC(C)(C)CO1 : 18.5
29) Cn1c(=O)c2c(nc3sc4ccccc4c(=O)n32)n(C)c1=O : 16.6
30) COc1ccc(C2c3cc4c(cc3OC(Nc3ccccc3)C2C)OCO4)cc1 (stereo not drawn) : 43.8
31) O=C([O][Sb]([O]C(=O)C(Br)Br)([c]1ccccc1)([c]1ccccc1)[c]1ccccc1)C(Br)Br : -14.2
32) O=C(N/N=C/C=C/c1ccccc1)NNC(=O)c1cc([N+](=O)[O-])cc([N+](=O)[O-])c1 : 13.8
33) CS(=O)(=O)OCCn1cnc2nc(NC(=O)c3ccccc3)[nH]c(=O)c21 : 0.55
34) Cc1cccc(NC(=O)/C=C/c2ccccc2)n1 : -81.3
35) CCCCCNc1ccnc(=O)[nH]1 : -39.5
36) Nc1n[n+](-c2ccc(Cl)cc2)no1 : 81.7
37) CN(/N=C/c1ccccc1)c1nnnn1-c1ccccc1 : 33
38) CCCCCP(=O)(CCC(C)C)CC(C)C (stereo not drawn) : 28.9

###

assay-details: NCI Yeast Anticancer Drug Screen. Data for the mlh1 rad18 strain (AID 175)
test-parameters: S. cerevisiae mlh1 rad18 strain growth inhibition; at 50.0 µM; hits give high values
This is part of a sample that, as a whole, favours compounds with a hit. Of some 79,000 tested, about 15% had one in any assay.
growth inhibition for assorted compounds
property: growth inhibition (%)

1. COc1cc(=O)n2c3ccccc3n(C)c2c1C#N : 41.8
2. CCC1=CCN2CCC34c5cc(C6(C(=O)OC)CC7CC(CC)CN(CCc8c6[nH]c6ccccc86)C7)c(OC)cc5N(C)C3C(O)(C(=O)OC)C(OC(C)=O)C1C24 (configuration not stated) : 10.6
3. O=C(Nc1nc(C23CC4CC(CC(C4)C2)C3)cs1)c1cc2ccccc2oc1=O : -17.4
4. CCCC(SCC(=O)O)SCC(=O)O : -17
5. COc1ccc(C2=NCCO2)cc1N : 11.4
6. O=C(CCl)Nc1ccc(SSc2ccc(NC(=O)CCl)cc2)cc1 : 12.9
7. C=CCOC(=O)/C=C\C(=O)OCC=C : 3.15

###

assay-details: NCI Yeast Anticancer Drug Screen. Data for the mlh1 rad18 strain (AID 175)
test-parameters: S. cerevisiae mlh1 rad18 strain growth inhibition; at 50.0 µM; hits give high values
About 79,000 compounds went through this panel and 15% of them were active in at least one assay; those are over-represented in the sample as a whole.
property: growth inhibition (%)

1. O=c1nc(NC(c2ccccc2)(c2ccccc2)c2ccccc2)ccn1CCCl : -9.7
2. NCCCC(=O)NCCCC(=O)O : 2
3. CN(C)C(=O)c1ccc[n+](CC(=O)Nc2ccccc2)c1 : -4.4
4. NS(=O)(=O)c1ccc(NC(=O)/C=C\C(=O)O)cc1 : -9.6
5. CN(/N=C/c1cccs1)c1ccc([N+](=O)[O-])cc1[N+](=O)[O-] : -10.8
6. C=CCc1cc(C(Cc2ccccc2)NC(C)C)cc(OCc2ccccc2)c1OCc1ccccc1 (centres undefined) : 50.9
7. CCc1cccc(C(C)CC)c1N=C(NC(=O)c1ccccc1C(=O)NC(=Nc1c(CC)cccc1C(C)CC)SC)SC (centres undefined) : -5.15
8. CC(=O)OC1CCC2(C)C3C/C(=N\O)C4(C)C(C(C)OC(C)=O)CCC4C3CCC2(C)C1 (centres undefined) : 95.9
9. CN(C)C(=S)Oc1cc(Cl)c(Cl)cc1Cl : 96
10. CNC(=O)c1ccccc1C(O)c1ccc(C)cc1 (centres undefined) : 20.6
11. C=C(c1ccccc1)C1(O)CCCCC1N(C)C (centres undefined) : 12.4
12. CCCCN=C1NS(=O)(=O)c2ccccc21 : -0.6
13. CC(C)CCNc1nc(N)[nH]c(=O)c1NC=O : -56.6
14. COc1cc(OC)cc(C2OC(N)=C(O)C2=O)c1 (centres undefined) : 19.3
15. CC(=S)NNC(=O)c1ccncc1 : -14.9
16. CCN(CC)C(=O)C1CCCCN1 (centres undefined) : 6.65
17. CC(=O)Nc1ccccc1C(C)=O : 4.85
18. CCCCC(=O)OCC(=O)[C@]1(O)Cc2c(O)c3c(c(O)c2[C@@H](OC2CC(NC(=O)C(F)(F)F)C(O)C(C)O2)C1)C(=O)c1c(OC)cccc1C3=O (some centres undefined) : 30.8
19. CCCOc1ccccc1C(=O)N1CCOCC1 : 15.8
20. CC1CCC2C(C)(C)CC3(C)CCC1C23O (centres undefined) : 83.2
21. CC1=CC(=O)C(=Ic2ccccc2)C(=O)O1 : 14.6
22. CCCCCCC1=CCCC1=O : 11.5
23. CC(C)(NC(=O)OCc1ccccc1)C(=O)OC(=O)C(C)(C)NC(=O)OCc1ccccc1 : -19.4
24. CN(C)c1nc2[nH]ncc2c(=O)[nH]1 : 0.8
25. CCOc1nc(N)nc(C)c1N=Nc1ccccc1C : 15.7
26. CN1CCC2(CC1)C(=O)N(NC(N)=O)C(=O)C2c1ccccc1 (centres undefined) : 13.8
27. O=C1c2cc3c(cc2C(=O)c2[nH]ncc21)OCO3 : 17.2
28. Cc1ccc(S(=O)(=O)OCC2=C(COS(=O)(=O)c3ccc(C)cc3)C3c4ccccc4C2c2ccccc23)cc1 : 4.8
29. O=C1CCC(C(=O)Nc2ccc(Cl)cc2Cl)N1 (centres undefined) : 8.75
30. Nc1cc(=S)nc(N)[nH]1 : 28.9
31. CCCCOC(=O)c1ccc(Cl)c(Cl)c1 : 7.45
32. C(=C/c1ccc(/C=C/C=C\c2ccccc2)cc1)/C=C/c1ccccc1 : -12.2
33. N#CCCOCc1ccccc1 : 0.55
34. CN(C)/C=C/c1nnnn1-c1ccc(I)cc1 : 34.6
35. Cn1ccc2c3ccsc3ccc21 : 1.05
36. O=c1[nH]c(-c2ccncc2)nnc1-c1ccc(Cl)cc1 : -14.1
37. CCCCC(CC)COS(=O)(=O)O (centres undefined) : -42
38. Cn1cnc2ncnc(Nc3ccc(Cl)cc3)c21 : -6.1
39. Clc1cccc(C2N3CCCCC3[C@@H]3c4[nH]c5ccccc5c4CCN23)c1 (some centres undefined) : 1.7

Cited source: PubChem BioAssay (NCI)
